Overview of recorded minimum inhibitory concentration (MIC) for various compounds
- Test system: methicillin-resistant Staphylococus epidermidis (MRSE)
- experiment_summary: MIC, NCCLS microdilution broth procedure, MRSE
- Type: cell-based
- condition: MRSE strain # 25
Answer with a number only, understood to be in µg/mL.

For the compound CC(C)C[C@@H](N)C(=O)N[C@H]1C(=O)N[C@@H](CC(N)=O)C(=O)N[C@H]2C(=O)N[C@H]3C(=O)N[C@H](C(=O)N[C@H](C(=O)O)c4cc(O)cc(O)c4-c4cc3ccc4O)[C@H](O)c3ccc(c(Cl)c3)Oc3cc2cc(c3O[C@@H]2O[C@H](CO)[C@@H](O)[C@H](O)[C@H]2O[C@H]2C[C@](C)(N)[C@H](O)[C@H](C)O2)Oc2ccc(cc2Cl)[C@H]1O [Nor, norvancoycin, reference compound] , what minimum inhibitory concentration (MIC) is on record?
2

What do we get for CC(C)C[C@H](N)C(=O)N[C@H]1C(=O)N[C@@H](CC(N)=O)C(=O)N[C@H]2C(=O)N[C@H]3C(=O)NC(C(=O)N[C@H](C(=O)O)c4cc(O)cc(O)c4-c4cc3ccc4O)[C@H](O)c3ccc(c(Cl)c3)Oc3cc2cc(c3OC2O[C@H](CO)[C@@H](O)[C@H](O)C2O[C@H]2C[C@](C)(NCc3ccc(-c4ccc(Cl)cc4)cc3)[C@H](O)[C@H](C)O2)Oc2ccc(cc2Cl)[C@H]1O (stereo partly shown) ?
0.5

What do we get for CCCCCCCCOc1ccc(CNCC(=O)N[C@@]2(C)C[C@H](OC3C(Oc4c5cc6cc4Oc4ccc(cc4Cl)[C@@H](O)[C@@H](NC(=O)[C@@H](N)CC(C)C)C(=O)N[C@@H](CC(N)=O)C(=O)N[C@H]6C(=O)N[C@H]4C(=O)NC(C(=O)N[C@H](C(=O)O)c6cc(O)cc(O)c6-c6cc4ccc6O)[C@H](O)c4ccc(c(Cl)c4)O5)O[C@H](CO)[C@@H](O)[C@@H]3O)O[C@@H](C)[C@H]2O)cc1 (stereo partly shown) ?
2

What do we get for CN[C@H](CC(C)C)C(=O)N[C@H]1C(=O)N[C@@H](CC(N)=O)C(=O)N[C@H]2C(=O)N[C@H]3C(=O)N[C@H](C(=O)N[C@H](C(=O)O)c4cc(O)cc(O)c4-c4cc3ccc4O)[C@H](O)c3ccc(c(Cl)c3)Oc3cc2cc(c3O[C@@H]2O[C@H](CO)[C@@H](O)[C@H](O)[C@H]2O[C@H]2C[C@](C)(N)[C@H](O)[C@H](C)O2)Oc2ccc(cc2Cl)[C@H]1O ?
2
